Exercise: state measured Ratio for each of the molecules provided.
# Protocol Details: Ratio (PEA/5-HT) of the compound
# Assay type: functional
Numbers only.

// solved cases for Ratio follow
- Molecule: "CC(N)Cc1c(Cl)cc(N)cc1Cl (centres undefined)"
  Ratio: 28300
- Molecule: "CC(N)Cc1ccc(N)cc1F (centres undefined)"
  Ratio: 1070
- Molecule: "CC(C)(N)Cc1ccc(N)cc1Cl"
  Ratio: 1310

Dear reader, for each entry below, please note its Ratio.
1. Cc1cc(N)ccc1CC(C)N (centres undefined)
2. CC(N)Cc1ccc(N)cc1Cl (centres undefined)
3. Cc1cc(N)c(Br)cc1CC(C)N (centres undefined)
4. CC(C)(N)Cc1ccc(N)cc1F
5. CC(N)Cc1ccc(N)cc1 (centres undefined)
6. Cc1cc(N)ccc1CC(C)(C)N

Completion:
[1560, 2780, 193, 467, 1030, 75]

###

Please respond with reported Ratio for every item in the list.
# Protocol Details: Ratio between inhibition of outside DA neurons to that of inside DA neurons
# Type: functional

- Compound: "CC(N)Cc1ccc(N)cc1 (stereo not drawn)"
  Assay Metric: "Ratio"
  Result: 19
- Compound: "Cc1cc(N)c(Br)cc1CC(C)N (stereo not drawn)"
  Assay Metric: "Ratio"
  Result: 2.1
- Compound: "CC(N)Cc1ccc(N)cc1Cl (stereo not drawn)"
  Assay Metric: "Ratio"
  Result: 3.3

Okay, here is my list. What is Ratio for each of these?
1. CC(C)(N)Cc1ccc(N)cc1F
2. Cc1cc(N)ccc1CC(C)N (stereo not drawn)
3. CC(C)(N)Cc1ccc(N)cc1Cl
4. CC(N)Cc1c(Cl)cc(N)cc1Cl (stereo not drawn)
5. CC(N)Cc1ccc(N)cc1F (stereo not drawn)

Completion:
4.1
9.7
2.5
1.5
23

###

# Species: Rattus norvegicus
# Protocol Details: Compound was tested for its ability to inhibit serotonin uptake
# Type: functional, organism-based
Lab note - cut at 6 µM for IC50: Y if strictly below, N if not.

Answered examples (3):
- Compound: "CC(N)Cc1ccc(N)cc1 (stereo not given)"
  Label Value: "N"
- Compound: "CCc1cc(N)ccc1CC(C)N (stereo not given)"
  Label Value: "N"
- Compound: "CC(N)Cc1ccc(N)cc1F (stereo not given)"
  Label Value: "Y"

Prompt: hey, is IC50 for CC(N)Cc1ccc(N)cc1Cl (stereo not given) lower than 6 µM or not?
Completion: Y

Prompt: # TODO verify IC50 < 6 µM strictly for this compound: CC(N)Cc1c(Cl)cc(N)cc1Cl (stereo not given)
Completion: N

Prompt: Problem: For the compound `Cc1cc(N)ccc1CC(C)(C)N` , is IC50 under 6 µM?
Completion: Y

Prompt: Given `CC(C)(N)Cc1ccc(N)cc1F` , is recorded IC50 strictly lower than 6 µM?
Completion: N

Prompt: Lab note: IC50 threshold 6 µM. Does this compound come in strictly under it? `CC(C)(N)Cc1ccc(N)cc1Cl`
Completion: Y

Prompt: Just wondering, is IC50 of Cc1cc(N)c(Br)cc1CC(C)N (stereo not given) below 6 µM?
Completion: N

Prompt: Quick check: IC50 of Cc1cc(N)ccc1CC(C)N (stereo not given) under 6 µM?
Completion: N

###

# System: Rattus norvegicus
# Protocol Details: Compound was tested for the behavioral changes in reserpinized rats that indicates the release of dopamine by subcuteneous administration
# Assay type: functional
What Least dose was measured for each of the following?
One number for each entry, in mg/kg.

Give Least dose for each of the items listed below.
1. CC(N)Cc1ccc(N)cc1 (stereo not given)
2. CC(N)Cc1c(Cl)cc(N)cc1Cl (stereo not given)
3. CC(N)Cc1ccc(N)cc1F (stereo not given)
4. CC(C)(N)Cc1ccc(N)cc1F

Completion:
[72, 229, 35, 264]
